These entries and their values trace back to ChEMBL document CHEMBL1154044.

system: Mus musculus; assay: Toxicity in CD1 mouse assessed as increase in weight respect to day zero at 300 mg/kg, ip after 3 days; format: organism-based; parameters: dose 300 mg/kg, route intraperitoneal; settings: in vivo, 72 h
Outcome measure: Activity (%)

{"Smiles str": "CCCCCCNC(=O)N/N=C/C=C/c1ccc([N+](=O)[O-])o1", "Value observed": 8}
{"Smiles str": "CCCCCCNC(=O)/C=C/c1ccc([N+](=O)[O-])o1", "Value observed": 2}
{"Smiles str": "CCCCCCCOC(=O)N/N=C/C=C/c1ccc([N+](=O)[O-])o1", "Value observed": 4}
{"Smiles str": "CCCCCCCCOC(=O)N/N=C/c1ccc([N+](=O)[O-])o1", "Value observed": 4}
{"Smiles str": "CCCCCCCCOC(=O)N/N=C/C=C/c1ccc([N+](=O)[O-])o1", "Value observed": 1}
{"Smiles str": "CCCCOC(=O)N/N=C/C=C/c1ccc([N+](=O)[O-])o1", "Value observed": 2}
{"Smiles str": "CCCCCCOC(=O)N/N=C/C=C/c1ccc([N+](=O)[O-])o1", "Value observed": 2}

---

Parameter Activity: see the listing below.
tested on: Mus musculus; assay: Toxicity in CD1 mouse assessed as haemoglobin level at 300 mg/kg, ip after 3 days; assay type: organism-based; set-up: dose 300 mg/kg, route intraperitoneal; conditions: in vivo, 72 h

{"Molecule": "CCCCCCNC(=O)N/N=C/C=C/c1ccc([N+](=O)[O-])o1", "Unit spec": "g/dL", "Activity": 12.8}
{"Molecule": "CCCCCCNC(=O)/C=C/c1ccc([N+](=O)[O-])o1", "Unit spec": "g/dL", "Activity": 11.3}
{"Molecule": "CCCCCCOC(=O)N/N=C/c1ccc([N+](=O)[O-])o1", "Unit spec": "g/dL", "Activity": 12.3}
{"Molecule": "CCCCCCCOC(=O)N/N=C/C=C/c1ccc([N+](=O)[O-])o1", "Unit spec": "g/dL", "Activity": 14.2}
{"Molecule": "CCCCCCCCOC(=O)N/N=C/c1ccc([N+](=O)[O-])o1", "Unit spec": "g/dL", "Activity": 13.8}
{"Molecule": "CC1CS(=O)(=O)CCN1/N=C/c1ccc([N+](=O)[O-])o1 (stereo unspecified)", "Unit spec": "g/dL", "Activity": 13.2}

---

Parameter Activity: see the listing below.
system: Mus musculus; assay: Toxicity in CD1 mouse assessed as glutamic-pyruvate transaminase level at 300 mg/kg, ip after 3 days; assay type: organism-based; design: dose 300 mg/kg, route intraperitoneal; conditions: in vivo, 72 h
Outcome measure: Activity (IU/L)

{"Molecule": "CCCCCCCOC(=O)N/N=C/C=C/c1ccc([N+](=O)[O-])o1", "Assayed system": "Mus musculus", "Unit spec": "IU/L", "Value observed": 46.1}
{"Molecule": "CCCCCCOC(=O)N/N=C/c1ccc([N+](=O)[O-])o1", "Assayed system": "Mus musculus", "Unit spec": "IU/L", "Value observed": 32}
{"Molecule": "CCCCCCOC(=O)N/N=C/C=C/c1ccc([N+](=O)[O-])o1", "Assayed system": "Mus musculus", "Unit spec": "IU/L", "Value observed": 33}
{"Molecule": "CCCCCCNC(=O)/C=C/c1ccc([N+](=O)[O-])o1", "Assayed system": "Mus musculus", "Unit spec": "IU/L", "Value observed": 52.8}
{"Molecule": "CCCCCCNC(=O)N/N=C/C=C/c1ccc([N+](=O)[O-])o1", "Assayed system": "Mus musculus", "Unit spec": "IU/L", "Value observed": 76.2}
{"Molecule": "CCCCOC(=O)N/N=C/C=C/c1ccc([N+](=O)[O-])o1", "Assayed system": "Mus musculus", "Unit spec": "IU/L", "Value observed": 17}
{"Molecule": "CCCCCCCCOC(=O)N/N=C/C=C/c1ccc([N+](=O)[O-])o1", "Assayed system": "Mus musculus", "Unit spec": "IU/L", "Value observed": 50.7}
{"Molecule": "CC1CS(=O)(=O)CCN1/N=C/c1ccc([N+](=O)[O-])o1 (stereo not drawn) [NIFURTIMOX]", "Assayed system": "Mus musculus", "Unit spec": "IU/L", "Value observed": 32.5}
